- Tested on: RKO colon carcinoma cell line
- assay.text: Tetrazolium dye proliferation assay, RKO
- Type: cell-based
- recorded.conditions: MTT, 5 days post addition of test compound, 500 cell per well
pIC50: −log10 of the molar value. Where a name gives a salt, the structure may show the parent alone.
quantity: pIC50

Quick one: pIC50 of NCC[S+]([O-])c1cc(-c2ccc[nH]2)c2c3c(ccc(F)c13)NC2=O (stereo not shown) [Example 43, hydrochloride salt] ?
≥ 5.00
